System: MOLM-13
assay.info: Antiproliferative activity against human MOLM-13 cells assessed as inhibition of cell growth incubated for 72 hrs by CellTiter-Glo assay
Assay type: functional, cell-based
run.conditions: MOLM-13, 72 h
pIC50: −log10 of the molar value.
measure.name: pIC50

Worked cases, pIC50 given:
smiles=CCn1c(CO)nn(-c2cc3c(C(C)C)cn(-c4ccccc4C)c(=O)c3cc2F)c1=O measure_name=pIC50 assay_value=9.72
smiles=CCn1c(CO)nn(-c2cc3c(C(C)C)cn(-c4c(C)cnc(OC)c4Cl)c(=O)c3cc2F)c1=O measure_name=pIC50 assay_value=8.62
smiles=CCn1c(CO)nn(-c2cc3c(C(C)C)cn(-c4ccccc4F)c(=O)c3cc2F)c1=O measure_name=pIC50 assay_value=8.68
smiles=CCn1c(CO)nn(-c2cc3c(C(C)C)cn(-c4ccccc4OC)c(=O)c3cc2F)c1=O measure_name=pIC50 assay_value=9.00

(P) CCn1c(CO)nn(-c2cc3c(C4(C)CC4)cn(-c4c(F)cccc4Cl)c(=O)c3cc2F)c1=O
(Q) CCn1c(CO)nn(-c2cc3c([C@@H](C)C(F)(F)F)cn(-c4ccccc4C)c(=O)c3cc2F)c1=O
(R) CCn1c(CO)nn(-c2cc3c(C(C)C)cn(-c4c(F)cccc4Cl)c(=O)c3cc2F)c1=O
Request: Ordering criterion: pIC50; begin with the maximum. Answer by writing out the labels in the requested order.
Response: R, Q, P
